experimental.system: T1, Rat HER3: CD33-[Rat HER3, residues 20-643]-TAG (rat, UniProt Q62799 20-643)
T1 construct: also called ra HER3-Tag; not shown: C-terminal TAG (e.g. FLAG TAG)
method.notes: solution equilibrium titration (SET), IgG, ECL read-out
Field: pKd. Provide a value for each of the binders that follow.
Numbers only, as −log10 of the molar value.

{"binder": "MOR14537 (antibody, human IgG1, lambda, V domains shown, Tested as IgG) VH: QVQLVQSGAEVKKPGASVKVSCKASGYTFTSYDIHWVRQAPGQGLEWMGRIDPYSGNTNYAQKFQGRVTMTRDTSISTAYMELSRLRSDDTAVYYCARGSFYTRDSYFDVWGQGTLVTVSS VL: QSALTQPASVSGSPGQSITISCTGTSSDVGTYNQVSWYQQHPGKAPKLMIYGVSKRPSGVSNRFSGSKSGNTASLTISGLQAEDEADYYCSSATQKPDVTVFGGGTKLTVLG", "pKd": 9.55}
{"binder": "MOR14533 (antibody, human IgG1, kappa, V domains shown, Tested as IgG) VH: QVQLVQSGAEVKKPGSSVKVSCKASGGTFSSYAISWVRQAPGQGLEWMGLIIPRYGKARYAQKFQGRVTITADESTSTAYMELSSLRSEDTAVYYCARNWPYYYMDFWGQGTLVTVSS VL: EIVLTQSPATLSLSPGERATLSCRASQNIVFNLAWYQQKPGQAPRLLIYDASNRATGIPARFSGSGSGTDFTLTISSLEPEDFAVYYCQQTKSKPSPTFGQGTKVEIKR", "pKd": 8.02}
{"binder": "MOR12603 (antibody, human IgG1, kappa, V domains shown, Tested as IgG) VH: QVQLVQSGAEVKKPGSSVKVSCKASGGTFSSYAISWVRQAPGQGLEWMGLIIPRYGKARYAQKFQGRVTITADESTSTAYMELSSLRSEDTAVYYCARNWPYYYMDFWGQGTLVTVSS VL: DIVLTQSPATLSLSPGERATLSCRASQNIVFNLAWYQQKPGQAPRLLIYDASNRATGVPARFSGSGSGTDFTLTISSLEPEDFAVYYCQQTKNRPPTFGQGTKVEIKR", "pKd": 7.96}

Below are 2 binders. Give each one its pKd.
1. MOR14538 (antibody, human IgG1, lambda, V domains shown, Tested as IgG) VH: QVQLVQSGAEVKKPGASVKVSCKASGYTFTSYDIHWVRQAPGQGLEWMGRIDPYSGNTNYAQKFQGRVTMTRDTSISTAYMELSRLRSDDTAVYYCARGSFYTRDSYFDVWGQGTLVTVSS VL: QSALTQPASVSGSPGQSITISCTGTSSDVGTYNQVSWYQQHPGKAPKLMIYGVSKRPSGVSNRFSGSKSGNTASLTISGLQAEDEADYYCASADHSYHTVFGGGTKLTVLG
2. MOR12605 (antibody, human IgG1, kappa, V domains shown, Tested as IgG) VH: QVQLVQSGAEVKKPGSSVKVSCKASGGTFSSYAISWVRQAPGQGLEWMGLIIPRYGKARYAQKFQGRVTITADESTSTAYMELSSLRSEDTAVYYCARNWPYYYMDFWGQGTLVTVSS VL: DIVLTQSPATLSLSPGERATLSCRASQNIVFNLAWYQQKPGQAPRLLIYDASNRATGVPARFSGSGSGTDFTLTISSLEPEDFAVYYCQQFRRKSNTFGQGTKVEIKR

RESULT:
10.29
8.02
